Provenance of the data: the supplement of paper PMC4466140

Target: ScAbp1
Experiment: SPOT peptide array binding signal intensity (averaged, normalized) (arbitrary units (background-subtracted, floor 0; scale differs between SH3 domains)); higher = stronger binding of the SH3 domain to the peptide
Recorded Metric: SPOT peptide array binding signal intensity
Please state the value as a number alone, without comment.

INSERT INTO assay_data (binder, reading) VALUES
  ('NVLRKILEIPLHSFS', 2),
  ('LYKRKPILLPDPKPL', 38),
  ('RLSFFFPLDPAYIRN', 2),
  ('NRLRKRLNLPSEISI', 191),
  ('VSKLRSPNTPRRLRK', 41),
  ('IRMPSNPALPKKLLN', 104);

Request: Return SPOT peptide array binding signal intensity for the following binder: FSRRQSMDIPSKNRN
Response: 74

Request: Return SPOT peptide array binding signal intensity for the following binder: QQNRPLPQLPNRNNR
Response: 62

Request: Return SPOT peptide array binding signal intensity for the following binder: QHQQRQPKRPKRYSL
Response: 43

Request: Return SPOT peptide array binding signal intensity for the following binder: QRKSLRRPTLSKPAV
Response: 52.5
